Consider the following compounds; for each one, report its IC50.
tested on: CEM cells HIV-1 protection, formazan growth assay; experiment: NCI AIDS Antiviral Assay; conditions: measured here: growth of uninfected CEM cells
Answers are plain numbers, in µM.

Example entries and their recorded answers appear below.
{"columns": ["COMPOUND", "UNIT_STRING", "IC50"],
 "data": [
  ["C=C1CC2[C@H](C)C(=O)CCC2(C)C2=C1C1CCC(C(C)CCC(=C)C(C)C(=O)O)C1(C)CC2=O (stereo not given in full)", "µM", 66.1],
  ["CC(C)=CCc1c(O)cc(O)c2c1OC(c1ccc(O)cc1)C(O)C2=O (stereo not given)", "µM", 17.8]
]}

Consider the additional compound presented here.
## Input # get_value(readout='IC50', item= Cc1cccc2c1CC1(C2)Cc2c(C)cccc2C1=O (stereo not given) )
## Output 37.2
